molecular target: Procathepsin L (Homo sapiens) (UniProt P07711); assay: cathepsin L1 inhibitors, retest, confirmation, counter-screen for PFM18AAP inhibitor project, biochemical, QFRET, triplicate (AID 2178); settings: purified cathepsin L1, Z-Leu-Arg-MCA fluorescence; at 5.96 µM; stronger effect = higher value;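 further: 0% = median of test compound wells and 100% = Z-Phe-Ala-diazomethylketone 1 µM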
Sequence (P07711 whole entry, looked up): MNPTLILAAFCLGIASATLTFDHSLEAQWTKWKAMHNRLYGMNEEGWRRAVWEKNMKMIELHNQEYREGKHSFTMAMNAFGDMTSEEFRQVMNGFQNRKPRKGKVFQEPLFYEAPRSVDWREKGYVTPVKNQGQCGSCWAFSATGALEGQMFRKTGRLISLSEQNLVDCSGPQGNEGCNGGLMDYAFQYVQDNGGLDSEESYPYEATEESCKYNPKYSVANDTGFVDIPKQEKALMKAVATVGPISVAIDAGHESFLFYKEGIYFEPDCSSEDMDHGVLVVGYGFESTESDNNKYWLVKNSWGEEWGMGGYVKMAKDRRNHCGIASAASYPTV
Screen size: about 2,400 compounds; fewer than 10 were called active. These entries were drawn from the full list.
Listed next: entries and their corresponding inhibition.
PARAMETER: inhibition (%)

{"columns": ["MOLECULE", "REPORTED"],
 "data": [
  ["O=C(CSC(=S)N1CCOCC1)c1cc(Br)cc(Br)c1O", -2.37],
  ["O=C(Nc1cccc([N+](=O)[O-])c1)Nn1cnnc1", -5.02],
  ["O=[N+]([O-])c1ccc(N2CCN(c3ccc(O)cc3)CC2)c(Cl)c1", 0.99],
  ["O=C(CN1CCN(c2ccc(O)cc2)CC1)Nc1ccc(-c2ccccc2)cc1", -1.37],
  ["Cc1ccnc(-n2sc3ccccc3c2=O)n1", -1.29],
  ["CCN(CC)c1ccc(NC(=O)CCc2nnc3ccc(N4CCCCC4)nn23)c(C)c1", 1.25],
  ["CCN(CC)c1ccc(/C=N/Nc2nc(C)cc(C)n2)c(O)c1", 4.21],
  ["CC(C)(C)NC(=O)C(c1ccncc1)N(C(=O)CNC(=O)c1ccco1)c1ccc2c(c1)OCO2 (configuration not stated)", -6.31],
  ["COc1ccc(N/C=C(\\C2OC(=O)c3ccccc32)[N+](=O)[O-])cc1 (configuration not stated)", -5.34],
  ["CC(OC(=O)c1ccc2noc(-c3ccccc3)c2c1)C(N)=O (configuration not stated)", 2.03],
  ["O=C(Nc1ccccc1Cl)Nn1cnnc1", -5.2],
  ["Cc1ccc(C)c(NC(=O)NNC(=O)c2ccc3ccccc3c2O)c1", -3.43],
  ["Cc1cc([N+](=O)[O-])c(-c2ccc(/C=N/n3cnnc3)o2)cc1Cl", 5.55],
  ["O=c1nc(N/N=C/c2ccco2)cn[nH]1", 8.33],
  ["Cc1nc2ccc(S(=O)(=O)NCC(=O)O)cc2s1", -0.46],
  ["Cc1ccsc1/C=N/Nc1ccc(Cl)nn1", 0.84],
  ["Cc1nc2nc[nH]n2c(=O)c1C/C=C/c1ccccc1", -4.98],
  ["NC(=S)N/N=C/c1coc2cc(Cl)ccc2c1=O", 1.96],
  ["COc1ccccc1-c1nnc(SCC(=O)Nc2cc(C)on2)o1", 8.93],
  ["CCOc1ccc(C2C3=C(CCCC3=O)N(CC(=O)O)C3=C2C(=O)CCC3)cc1", 0.31],
  ["OCCN1CCN(C(=S)c2ccc(-c3ccccc3)cc2)CC1", -0.85],
  ["Oc1ccc(/C=N/Nc2ccc(C(F)(F)F)cn2)cc1O", -2.87],
  ["NC(=O)C1CCN(C(=O)/C(=C/c2ccco2)NC(=O)c2ccccc2)CC1", -6.56],
  ["COc1cc(/C=N/Nc2nn3cnnc3c3ccccc23)cc(OC)c1OC", 3.85],
  ["CN(C)c1ccc(C(CC(=O)O)C(=O)O)cc1 (configuration not stated)", -7.14],
  ["O=C(CN1CCN(S(=O)(=O)c2cc(Cl)ccc2Cl)CC1)c1ccc(O)c(O)c1", -1.56],
  ["CC/C(C)=N/Nc1nc2sc3c(c2c(=O)[nH]1)CC(C)(C)OC3", 2.48],
  ["Cc1cc2c(C)nc(N/N=C/c3ccccc3)nc2o1", 3.67],
  ["NC(=O)c1c(Nc2nc3c(F)cccc3s2)sc2c1CCCC2", 3.61],
  ["Cn1c(=O)[nH]c(=O)c2c1[nH]c(=S)n2Cc1ccccc1", -1.96],
  ["Cc1ccc2nc(-c3cccc(Br)c3)cc(C(=O)Nn3cnnc3)c2c1", -9.17],
  ["S=c1[nH]nc2c3c4c(sc3ncn12)CCCC4", -1.23],
  ["Oc1ccc(/C=N/NC2=NCCCCC2)c(O)c1", 1.65],
  ["Cc1ccc(NC(=O)c2c(NC(=O)CCC(=O)O)sc3c2CCCCC3)cc1", 5.04],
  ["CCOC(=O)NNc1cc(C(F)(F)F)ccn1", 4.25],
  ["CC(=O)c1ccc(NC(=O)CCc2nnc3ccc(NCc4ccco4)nn23)cc1", -4.62],
  ["CCN1/C(=C/C(=S)Nc2ccccc2)Sc2ccccc21", 0.64],
  ["Cc1cc(C)nc(Nc2ncn[nH]2)n1", -0.26],
  ["O=S(=O)(c1ccc(NC(=S)NN=C(C2CC2)C2CC2)cc1)N1CCOCC1", 0.19],
  ["COc1c(O)ccc2c1CN1CCc3cc4c(cc3C1C2)OCO4 (configuration not stated)", -3.11],
  ["COc1cc(NC(=S)N2CCCC(C)C2)c(OC)cc1Cl (configuration not stated)", -10.4],
  ["O=C(Cn1c[n+](CC(=O)c2ccc([N+](=O)[O-])cc2)cn1)c1ccc([N+](=O)[O-])cc1", 13.7],
  ["S=c1[nH]c(-c2cccs2)cn1-c1ccccc1", -4.9],
  ["Oc1c(C(c2ccco2)N2CCC3(CC2)OCCO3)sc2ncnn12 (configuration not stated)", -2.01],
  ["CCOc1cccc(/C=N/NC(=S)NCCN2CCOCC2)c1O", 3.05],
  ["ClC1(Cl)CC1CSc1ncn[nH]1 (configuration not stated)", -4.69],
  ["CCCc1nc2ccccc2c(=O)n1/N=C/c1ccc(O)c(O)c1", -0.21]
]}
